protocol_summary: yeast display, Sf9 membrane polyspecificity reagent, FACS + sequencing; frameworks hold sequencing errors
endpoint_label: polyreactivity (PSR sort gate)

ordered_residues=QVQLVESGGGLVQAGGSLRLSCAASGSIFWRNAMGWYRQAPGKERELVAAISRVGSTNYADSVKGRFTISRDNAKNTVYLQMNSLKPQDTAVYYCAVDGGEFSSYGYWGQGTQVTVSS reading="low polyreactivity"
ordered_residues=QVQLVESGGGLVQAGGSLRLSCAASGSTFTKNVMGWYRQAPGKERELVAAISSGGRTNYADSVKGRFTISRDNAKNTVYLQMNSLKPEDTAVYYCAADVGYFKSDYWGQGTQVTVSS reading="low polyreactivity"

###

protocol_summary: yeast display, Sf9 membrane polyspecificity reagent, FACS + sequencing; frameworks hold sequencing errors
endpoint_label: polyreactivity (PSR sort gate)

ordered_residues=QVQLVESGGRLVQAGGSLRLSCAASGFIFAYYSMGWYRKAPGKERELVAAISQSGTSTYYADSLKGRFTISRAKAKNTVYLQMNSLKPVDTAVYYCNAELRDLEYDYWGQGTQVTVSS reading="low polyreactivity"
ordered_residues=QEQLQESGGGQVQAGGSLLLSCAASGNIIRYYYMGWYRQAPGKERELVAAITYGTSTNDADSVKGRFTISRDNAKNTVYLQMNSLKPEDTAVYYCAVDVNYGDPLDNWGQGTQVTVSS reading="high polyreactivity"
ordered_residues=QVQLVESGGGLVQAGGSLRLSCAASGFIFGLYDMGWDRQAPGKERELVATISDSGGDTYYSDSVKGRFTISRDNAKNTVYLQMNSMKPEDTAVYYCAAKYVYGRGIRAYDYWVQGTQVTVSS reading="high polyreactivity"
ordered_residues=QVQLVESGGGLVHAGGSIRLSCAASGRIFGYYTMGWYRQAPGKERELVAAIRGNGGSTYYADSVKGLFTISRDNAKNTVYLQMHSLKPQDTAVYYCAATDISYRRVPYGRKKQYDYWGQGTQVTVSS reading="high polyreactivity"
ordered_residues=QVQLVESGGGLVQAGGSLRLSCAASGLIFYRNAMGWYRQAPGKERELVAAISVSGGSTYYADSVKGRFTISRDNAKNTVYLQMNSLKPEDTAVYYCAAKTWRSRGLEMDYWGQGTQVTVSS reading="high polyreactivity"

Quick request: polyreactivity (PSR sort gate) for each listed item, please.
1. QVQLVESGGGIVQAGGSLRLSCDASGRIFTGNVMGWYRQAPGKERELVAAISRRGGGTYYADSVKGRFTISRDNAKNTVYLQMNSLIPEDTALYYCDAQYRSQGQPKGCVLYYYWVQGTQVTVSS
2. QVQLVESGGGLVQAGCSLRLSCAASGSIYLVNAMGWYRQAPGKERELVAAIDWSGDTTYYADSVKGRFTISRDYEKNTVYLQMNRLKPEDTAVYYCAAEYEFHEYDYWGQGTQVTVSS
3. QVQLVESGGGLVQAGASLRLSCAASGFTFDENAMGWYRQAPGINYSGASTYYAHSVKGRFTISRDNAKNTVYIHMNSLQPEDTAVYYCAAEVVAQMNYWGQGTQVTVSS
4. QVQLVESGGGLVQAGGSLRLSCAASGSTFTSYAMGWYRQAPGKERELVAAISRSGGRTYYADSVKGRFTISRDNAKYTVYLQMNSLKPEDTAVYYCNAASLSKSDYWGQGTQVTVSS
5. QVQLVESGGGLVQAGGSLRLSCAASGRIGYNVMGWYRPAPGKERELVADISRGGGRTYYADSVKGRFTISRDNAKNTVYLQMNSLKPEDTAVYYCNAVTYYVDGGWYDYDYWGQGTQVTVSS
6. QVQLVESGGGLVQEGGSLRLSCAASGSSFCSYAMGRYRQAPGKERELVAAISSSGDSTYADSVKGRFTMSRDNAKNTVYLQMNSLKPEDTAVYYCAVGGAGSDDYWGQGTQVTVSS

1: high polyreactivity; 2: high polyreactivity; 3: low polyreactivity; 4: high polyreactivity; 5: high polyreactivity; 6: low polyreactivity

Quick request: polyreactivity (PSR sort gate) for each listed item, please.
1. QVQLVESGGGLVQAGGSLRLSCAASGFTFHSYAMGWYRQAPGKERELVAAISTGGTRTYYADSVMGRVTISRDNAKNTVYLQMNSLKPEDTAVYYCAADLYRGVRIYSKYDSWGQGTQVTVSS
2. QVQVVESGGGIVHAGGSLRLSCAASGFIFLVNGMVWYRQAPGKERELVAAISFDGGSTYADSVKGRFTISRDNAKNTVYLLMTSLKPEDTAVFYCATDVRGVDGEDYSWGQGTQVTVSS

1: high polyreactivity; 2: low polyreactivity

Quick request: polyreactivity (PSR sort gate) for each listed item, please.
1. QVQLVESGGGLVQAGGSLRLSCAASGSTFAPNAMGWYRQAPGKEREFVASITWRGGSTYYADSVKGRFTISRDNAKNTVYLQMNSLKPEDTAVYYCANLKRGFYRLFGFRYDYWGQGTQVTVSS
2. QVQLVESGGGLVQAGGSLRLSCAASGRTFSIYAKGWYRQAPGKERELVAAISNGGRTKYADSVKGRFTISRDNAKNTVYLQMNSLKPEDTAVYYCAASSYTHKRYPSPYDYWGQGTQVTVSS
3. QVQLVESGLGLVQAGASLRVSCAASGSTFIFNTMGWSRQAPGKERELVAAIRLSGGSTYYADSVKGRFTITRDNAKNTVYLQMNSLNPEDTAVYYCARRLATRGHTYDYWGQGTQVTVSS
4. QVQLVESGGGLVQAGGSLRLSCAASGFNFERYAMGWYRQAPGKERELVAAISSRGGGTYYADSVKGRFTISRDNAKNTVYLQMNSLKPEDTAVYYCNRPYDYSYNYWGQGTQVTVSS

["low polyreactivity", "high polyreactivity", "low polyreactivity", "high polyreactivity"]

Quick request: polyreactivity (PSR sort gate) for each listed item, please.
1. QVQLVESGGGLVQAGGSLRLSCAASGRTYGIYAMGWYRQAPGKERELVADITIGGSTYYADSVMGRFTISRDNAKNTVYLQMNSLKPEDTAVYYCNADFVVQYYFTYYRVFTYDYWGLGTQVTVSS
2. QVQIVESGGGLVQAGGSLRLSCAASGRTFKGYAMAFYRQAPGKERELVAGISRGAGRTYYADSVKGRFTISRDNAKNTVYLQMNSLKPEDTAVYYCAAVPSYNSTSPFYYWGQGTQVTVSS
3. QVQLVESGGGLLQAGGSLRLSCASSGRIFRWNAMGWYRQAPGKERELVAAISARGGSTYYADSVKGRFTISRDNAKNTVYLQMNSLKPEDTAVYYCAKVSSRGFDYWGQGTQVTVSS
4. QVQLVESGGGLVQAGGSLRLSCAASGSTFNVYAMGWYRQAPGKERELVARISWSGGNTYYADSVKGRFTISRDNAKNTVYLQMNSLKPEDTAVYYCATKGYTGYAYRYGYWGQGTQVTVSS

1. low polyreactivity
2. high polyreactivity
3. high polyreactivity
4. high polyreactivity
